meta.source: paper PMC5540273

- Tested on: MAK;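 further: kd values determined as follow-up on hits from a single-replicate KINOMEscan panel screen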
pKd: −log10 of the molar value.
value-kind: pKd

The reported pKd of the compound CCS(=O)(=O)c1ccc(OC)c(Nc2ncc(-c3ccc(F)cc3)o2)c1.Cl was < 5.00

###

- System: OSR1;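 further: KINOMEscan kinase panel screen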
- Construct: gene OXSR1
- condition-parameters: concentration: 1 μM, replicates: in singlicate; n = 1
The label is y for %Inh below 4% and n for %Inh equal to or exceeding 4%.

API: query returns whether the compound falls strictly under 4% in %Inh. Query: COc1cccc(C2=C(Nc3cccc(C(=O)O)c3)C(=O)NC2=O)c1
n

API: query returns whether the compound falls strictly under 4% in %Inh. Query: COc1ccc(-c2cc3c(C)nc(N)nc3n([C@H]3CC[C@H](O)CC3)c2=O)cn1
y

API: query returns whether the compound falls strictly under 4% in %Inh. Query: COc1cc2ncn(-c3cc(OCCCc4ccccc4)c(C(N)=O)s3)c2cc1OC
y

API: query returns whether the compound falls strictly under 4% in %Inh. Query: CCC(=O)c1c(-c2ccccc2)c2cc(Cl)ccc2c(=O)n1Cc1cc(S(C)(=O)=O)n(CC(F)F)n1
y

API: query returns whether the compound falls strictly under 4% in %Inh. Query: O=c1cc(N2CCOCC2)nc2n(Cc3ccc(F)c(Cl)c3)ccn12
n

API: query returns whether the compound falls strictly under 4% in %Inh. Query: COc1cc(Nc2nccc(N3CCC(NC(=O)C4COc5ccccc5O4)C3)n2)cc(OC)c1OC (stereo not drawn)
y

API: query returns whether the compound falls strictly under 4% in %Inh. Query: Nc1nccc2scc(-c3ccc4c(c3)CCN4C(=O)Cc3ccccc3)c12
n

API: query returns whether the compound falls strictly under 4% in %Inh. Query: COC(=O)c1c(-c2ccccc2)c2cc(C)ccc2c(=O)n1Cc1ccccc1
y

API: query returns whether the compound falls strictly under 4% in %Inh. Query: CCn1c(-c2nonc2N)nc2ccccc21
n

API: query returns whether the compound falls strictly under 4% in %Inh. Query: CCC(=O)c1c(-c2ccccc2)c2cc(Cl)ccc2c(=O)n1Cc1cc(S(C)(=O)=O)n(CCC(C)(C)O)n1
y

API: query returns whether the compound falls strictly under 4% in %Inh. Query: CN1C(=O)C(Nc2cc(Cl)c(O)c(Cl)c2)=C(c2ccc(Cl)cc2)C1=O
y

API: query returns whether the compound falls strictly under 4% in %Inh. Query: Cc1cccc(-c2nc(Nc3ccc4c(cnn4C)c3)c3ccccc3n2)n1
y

API: query returns whether the compound falls strictly under 4% in %Inh. Query: Cc1nnc(-c2ccc(C)c(-c3ccc(C(=O)O)cc3)c2)o1
y

API: query returns whether the compound falls strictly under 4% in %Inh. Query: Nc1ncnc2c1ncn2-c1cccc(F)c1
n
